Origin of measurements: PubChem BioAssay AID2060513

Parameter viability, T/C: see the listing below.
System: 299254-011-R-J1-PDC complex spheroids viability
Test: Anticancer human tumor 299254-011-R-J1-PDC patient-derived melanoma cell line growth inhibition [GQUAD]
Conditions: second compound 0.316 µM; first compound 0.0316 µM; stronger effect = lower value
metric: viability, T/C (%)

INSERT INTO measurements (molecule, measured_value) VALUES
  ('Cc1[nH]c2ccccc2c1CCNCc1ccc(/C=C/C(=O)NO)cc1 + Cc1cnc(CNC(=O)c2c(=O)c3ccc(N4CCCN(C)CC4)nc3n3c2sc2ccccc23)cn1', 91.3),
  ('C=CCn1c(=O)c2cnc(Nc3ccc(N4CCN(C)CC4)cc3)nc2n1-c1cccc(C(C)(C)O)n1 + Cc1cnc(CNC(=O)c2c(=O)c3ccc(N4CCCN(C)CC4)nc3n3c2sc2ccccc23)cn1', 89.8),
  ('O=C(c1cc(Cc2n[nH]c(=O)c3ccccc23)ccc1F)N1CCN(C(=O)C2CC2)CC1 + CN(C)c1ccc(Nc2c3ccc(NC(=O)CCN4CCCC4)cc3nc3cc(NC(=O)CCN4CCCC4)ccc23)cc1', 95.6),
  ('CC1COCCN1c1cc(C2(S(C)(=N)=O)CC2)nc(-c2ccnc3[nH]ccc23)n1 (centres undefined) + Cc1cnc(CNC(=O)c2c(=O)c3ccc(N4CCCN(C)CC4)nc3n3c2sc2ccccc23)cn1', 80.6);

* * *

Tested on: 299254-011-R-J1-PDC complex spheroids viability
Experiment: Anticancer human tumor 299254-011-R-J1-PDC cell line growth inhibition [GQUAD]; active = viability on the fitted dose curve at most 10% of control; inactive = the rest;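 further: spheroids exposed to the agents for seven days before readout; percent viability relative to DMSO vehicle control wells = 100%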
Settings: second compound 0.1 µM; first compound 3.16 µM
Classes used: 1 = active, 0 = inactive

INSERT INTO measurements (compound, qualitative_label) VALUES
  ('C=CCn1c(=O)c2cnc(Nc3ccc(N4CCN(C)CC4)cc3)nc2n1-c1cccc(C(C)(C)O)n1 + Cc1[nH]c2ccc(F)cc2c1-c1nc2c3cccnc3c3ncccc3c2[nH]1', 0),
  ('CC(C)n1c(=O)n(C)c2cnc3cc(F)c(-c4ccc(OCCCN5CCCCC5)nc4)cc3c21 + CN(C)c1ccc(Nc2c3ccc(NC(=O)CCN4CCCC4)cc3nc3cc(NC(=O)CCN4CCCC4)ccc23)cc1', 0),
  ('CC(C)(O)C1CCC(Nc2ccc3ncc(-c4cccc(C(F)(F)F)c4)n3n2)CC1 (stereo unspecified) + CN(C)c1ccc(Nc2c3ccc(NC(=O)CCN4CCCC4)cc3nc3cc(NC(=O)CCN4CCCC4)ccc23)cc1', 0),
  ('C=CCn1c(=O)c2cnc(Nc3ccc(N4CCN(C)CC4)cc3)nc2n1-c1cccc(C(C)(C)O)n1 + CN(C)c1ccc(Nc2c3ccc(NC(=O)CCN4CCCC4)cc3nc3cc(NC(=O)CCN4CCCC4)ccc23)cc1', 0),
  ('COc1cccc2c1C(=O)c1c(O)c3c(c(O)c1C2=O)CC(O)(C(=O)CO)CC3OC1CC(N)C(O)C(C)O1 (stereo unspecified) + Cc1cnc(CNC(=O)c2c(=O)c3ccc(N4CCCN(C)CC4)nc3n3c2sc2ccccc23)cn1', 0),
  ('CC1COCCN1c1cc(C2(O)CC3CCC(C2)O3)c2cnn(-c3ccn[nH]3)c2n1 (stereo unspecified) + Cc1cnc(CNC(=O)c2c(=O)c3ccc(N4CCCN(C)CC4)nc3n3c2sc2ccccc23)cn1', 1),
  ('CC1COCCN1c1cc(-c2ccnn2C)c2ccnc(-c3ccn[nH]3)c2n1 (stereo unspecified) + Cc1cnc(CNC(=O)c2c(=O)c3ccc(N4CCCN(C)CC4)nc3n3c2sc2ccccc23)cn1', 0),
  ('CCCS(=O)(=O)Nc1ccc(F)c(C(=O)c2c[nH]c3ncc(-c4ccc(Cl)cc4)cc23)c1F + Cc1cnc(CNC(=O)c2c(=O)c3ccc(N4CCCN(C)CC4)nc3n3c2sc2ccccc23)cn1', 0),
  ('C#Cc1c(F)ccc2cc(O)cc(-c3ncc4c(N5CC6CCC(C5)N6)nc(OCC56CCCN5CC(F)C6)nc4c3F)c12 (stereo unspecified) + Cc1cnc(CNC(=O)c2c(=O)c3ccc(N4CCCN(C)CC4)nc3n3c2sc2ccccc23)cn1', 0),
  ('C=CC(=O)N1CCN(c2nc(=O)n(-c3c(C)ccnc3C(C)C)c3nc(-c4c(O)cccc4F)c(F)cc23)C(C)C1 (stereo unspecified) + Cc1[nH]c2ccc(F)cc2c1-c1nc2c3cccnc3c3ncccc3c2[nH]1', 0),
  ('O=c1[nH]cc(F)c(=O)[nH]1 + Cc1[nH]c2ccc(F)cc2c1-c1nc2c3cccnc3c3ncccc3c2[nH]1', 0),
  ('O=c1[nH]cc(F)c(=O)[nH]1 + CN(C)c1ccc(Nc2c3ccc(NC(=O)CCN4CCCC4)cc3nc3cc(NC(=O)CCN4CCCC4)ccc23)cc1', 0),
  ('Nc1ccn(C2OC(CO)C(O)C2(F)F)c(=O)n1 (stereo unspecified) + Cc1cnc(CNC(=O)c2c(=O)c3ccc(N4CCCN(C)CC4)nc3n3c2sc2ccccc23)cn1', 0),
  ('CC1COCCN1c1cc(-c2ccnn2C)c2ccnc(-c3ccn[nH]3)c2n1 (stereo unspecified) + CN(C)c1ccc(Nc2c3ccc(NC(=O)CCN4CCCC4)cc3nc3cc(NC(=O)CCN4CCCC4)ccc23)cc1', 0),
  ('COc1ccc([C@@H](O)c2cc(-c3ncnc4cc(N5CCOCC5)ccc34)c(F)cc2Cl)nn1 + CN(C)c1ccc(Nc2c3ccc(NC(=O)CCN4CCCC4)cc3nc3cc(NC(=O)CCN4CCCC4)ccc23)cc1', 0),
  ('CC1COCCN1c1cc(C2(O)CC3CCC(C2)O3)c2cnn(-c3ccn[nH]3)c2n1 (stereo unspecified) + Cc1[nH]c2ccc(F)cc2c1-c1nc2c3cccnc3c3ncccc3c2[nH]1', 0),
  ('Cc1cccc(N(C)C(=O)C2C(O)CCN2c2nc(C)cc(C(F)(F)F)c2C#N)c1 (stereo unspecified) + Cc1[nH]c2ccc(F)cc2c1-c1nc2c3cccnc3c3ncccc3c2[nH]1', 0),
  ('CC(=O)O[C@H]1C(=O)[C@@]2(C)[C@H]([C@H](OC(=O)c3ccccc3)[C@]3(O)C[C@H](OC(=O)[C@H](O)[C@@H](NC(=O)c4ccccc4)c4ccccc4)C(C)=C1C3(C)C)[C@]1(OC(C)=O)CO[C@@H]1C[C@@H]2O + Cc1[nH]c2ccc(F)cc2c1-c1nc2c3cccnc3c3ncccc3c2[nH]1', 0),
  ('C=CC(=O)N1CCN(c2nc(=O)n(-c3c(C)ccnc3C(C)C)c3nc(-c4c(O)cccc4F)c(F)cc23)C(C)C1 (stereo unspecified) + Cc1cnc(CNC(=O)c2c(=O)c3ccc(N4CCCN(C)CC4)nc3n3c2sc2ccccc23)cn1', 0),
  ('COc1cc(C2c3cc4c(cc3C(OC3OC5COC(C)OC5C(O)C3O)C3COC(=O)C23)OCO4)cc(OC)c1O (stereo unspecified) + Cc1cnc(CNC(=O)c2c(=O)c3ccc(N4CCCN(C)CC4)nc3n3c2sc2ccccc23)cn1', 0),
  ('CCCS(=O)(=O)Nc1ccc(F)c(C(=O)c2c[nH]c3ncc(-c4ccc(Cl)cc4)cc23)c1F + CN(C)c1ccc(Nc2c3ccc(NC(=O)CCN4CCCC4)cc3nc3cc(NC(=O)CCN4CCCC4)ccc23)cc1', 0);
